- measuredTarget: COX-2 (Homo sapiens)
- Construct: purchased Cayman Chemical Company 701080
- protocol: COX-2 inhibitory screening assay (Cayman kit)
- Type: biochemical
- conditionContext: mean ± SD of three replicates
pIC50: −log10 of the molar value.
Listed compounds paired with reported pIC50
recordedMetric: pIC50

| compound | obsValue |
| --- | --- |
| O=c1c2cc(Cl)ccc2[nH]c(=S)n1-c1cccc(C(F)(F)F)c1 [Compound 3a] | 3.55 |
| O=c1c2cc(Br)ccc2[nH]c(=S)n1-c1ccc([N+](=O)[O-])cc1 [Compound 3g] | 3.60 |

* * *

- measuredTarget: COX-2 (Homo sapiens, UniProt P35354)
- Construct: purchased Cayman Chemical Company 701080
- Sequence (P35354 18-604): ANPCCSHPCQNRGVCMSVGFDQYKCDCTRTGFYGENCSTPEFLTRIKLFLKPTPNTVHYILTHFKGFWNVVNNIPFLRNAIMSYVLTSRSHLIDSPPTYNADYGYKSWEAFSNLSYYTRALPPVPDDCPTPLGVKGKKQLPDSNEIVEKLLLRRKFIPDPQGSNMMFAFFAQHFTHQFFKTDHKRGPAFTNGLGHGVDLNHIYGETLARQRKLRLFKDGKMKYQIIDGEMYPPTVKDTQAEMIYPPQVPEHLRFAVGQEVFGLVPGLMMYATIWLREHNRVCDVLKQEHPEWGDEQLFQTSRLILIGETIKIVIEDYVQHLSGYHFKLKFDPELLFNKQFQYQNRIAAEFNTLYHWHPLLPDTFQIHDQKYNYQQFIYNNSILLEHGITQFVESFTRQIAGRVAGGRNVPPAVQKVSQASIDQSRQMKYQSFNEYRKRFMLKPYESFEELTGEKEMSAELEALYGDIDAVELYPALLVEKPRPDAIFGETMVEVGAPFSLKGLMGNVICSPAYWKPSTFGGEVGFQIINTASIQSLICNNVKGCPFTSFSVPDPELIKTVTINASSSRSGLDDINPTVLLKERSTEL
- protocol: COX-2 inhibitory screening assay (Cayman kit)
- Assay type: biochemical
- conditionContext: at 0.200 mg/mL; read-out: COX-2 mean % inhibition ± SD
Binary call on inhibition at 200 µg/mL: fulfilled from 30% upward, not fulfilled beneath that.

| compound | labelValue |
| --- | --- |
| COc1cc2[nH]c(=S)n(-c3ccc([N+](=O)[O-])cc3)c(=O)c2cc1OC [Compound 3h] | not fulfilled |
| O=c1c2cc(Cl)ccc2[nH]c(=S)n1-c1ccc(C(F)(F)F)cc1 [Compound 3d] | fulfilled |
| O=c1c2cc(Br)ccc2[nH]c(=S)n1-c1ccc([N+](=O)[O-])cc1 [Compound 3g] | fulfilled |
| O=c1c2cc(Cl)ccc2[nH]c(=S)n1-c1ccc([N+](=O)[O-])cc1 [Compound 3f] | not fulfilled |
| O=c1c2cc(Br)ccc2nc(SCc2cccc([N+](=O)[O-])c2)n1-c1ccc([N+](=O)[O-])cc1 [Compound 5g] | not fulfilled |
| O=c1c2cc(Cl)ccc2nc(SCc2ccccc2F)n1-c1cccc(C(F)(F)F)c1 [Compound 5a] | fulfilled |
| O=c1c2cc(Br)ccc2nc(SCc2ccc(Cl)cc2)n1-c1cccc(C(F)(F)F)c1 [Compound 5b] | not fulfilled |
| COc1ccc(Br)c(CSc2nc3ccc(Br)cc3c(=O)n2-c2ccc(C(F)(F)F)cc2)c1 [Compound 5e] | fulfilled |
| COc1cc2nc(SCc3ccc(Cl)cc3)n(-c3ccc([N+](=O)[O-])cc3)c(=O)c2cc1OC [Compound 5h] | not fulfilled |
| O=c1c2cc(Cl)ccc2[nH]c(=S)n1-c1cccc(C(F)(F)F)c1 [Compound 3a] | fulfilled |
| COc1cc2nc(SCc3cccc([N+](=O)[O-])c3)n(-c3cccc(C(F)(F)F)c3)c(=O)c2cc1OC [Compound 5c] | not fulfilled |
| COc1cc2[nH]c(=S)n(-c3cccc(C(F)(F)F)c3)c(=O)c2cc1OC [Compound 3c] | not fulfilled |
| COc1ccc(Br)c(CSc2nc3ccc(Cl)cc3c(=O)n2-c2ccc([N+](=O)[O-])cc2)c1 [Compound 5f] | fulfilled |
| O=c1c2cc(Br)ccc2[nH]c(=S)n1-c1ccc(C(F)(F)F)cc1 [Compound 3e] | not fulfilled |
| O=c1c2cc(Br)ccc2[nH]c(=S)n1-c1cccc(C(F)(F)F)c1 [Compound 3b] | not fulfilled |
